Measured CD28 Fold change to WT CD80 values are reported for all entries that follow.
Molecular target: CD28 (Homo sapiens, UniProt P10747)
Experiment: Flow binding to Jurkat/IL2 reporter cells (CD28)
Parameters: host or cells: Jurkat cells expressing an IL-2-luciferase reporter
Conditions: Table E20; MFI at 33.3 nM relative to CD80 WT IgV-Fc
Respond with the bare value in fold.

E35D/M47L/A71G/D90G (protein) VIHVTKEVKEVATLSCGHNVSVEELAQTRIYWQKDKKMVLTMMSGDLNIWPEYKNRTIFDITNNLSIVILGLRPSDEGTYECVVLKYEKGAFKREHLAEVTLSVKAD    30.3
E35D/M47L/V68M/D90G (protein) VIHVTKEVKEVATLSCGHNVSVEELAQTRIYWQKDKKMVLTMMSGDLNIWPEYKNRTIFDITNNLSIMILALRPSDEGTYECVVLKYEKGAFKREHLAEVTLSVKAD    77.8

Lookup: Which CD28 Fold change to WT CD80 value is on record for A26E/E35D/V68M/D90G (protein) VIHVTKEVKEVATLSCGHNVSVEELEQTRIYWQKDKKMVLTMMSGDMNIWPEYKNRTIFDITNNLSIMILALRPSDEGTYECVVLKYEKGAFKREHLAEVTLSVKAD ?
Found: 38.3

Lookup: Which CD28 Fold change to WT CD80 value is on record for H18Y/A26E/E35D/M47L (protein) VIHVTKEVKEVATLSCGYNVSVEELEQTRIYWQKDKKMVLTMMSGDLNIWPEYKNRTIFDITNNLSIVILALRPSDEGTYECVVLKYEKDAFKREHLAEVTLSVKAD ?
Found: 7.4

Lookup: Which CD28 Fold change to WT CD80 value is on record for H18Y/A26E/V68M/D90G (protein) VIHVTKEVKEVATLSCGYNVSVEELEQTRIYWQKEKKMVLTMMSGDMNIWPEYKNRTIFDITNNLSIMILALRPSDEGTYECVVLKYEKGAFKREHLAEVTLSVKAD ?
Found: 54.5
